Catalogue of IC50 readings, one per entry.
target: human aldose reductase (Homo sapiens); construct: His-tag (cleaved yes); made in house; host or cells: E. coli BL21; experiment: Inhibition of recombinant human aldose reductase, DL-glyceraldehyde reduction, NADPH at 340 nm; format: biochemical
Return type: number; implicit unit nM.

Before answering, review these 2 worked examples.
Bench note: what IC50 did N#CC(=Cc1ccc(O)cc1)C(=O)O [α-cyano-4-hydroxycinnamic acid] show?
80

Request: COc1cccc2c1C(=O)c1c(O)c3c(c(O)c1C2=O)C[C@@](O)(C(=O)CO)C[C@@H]3O[C@H]1C[C@H](N)[C@H](O)[C@H](C)O1 [Doxorubicin]
200

Field: next compound
Bench note: what IC50 did COc1cccc2c1C(=O)c1c(O)c3c(c(O)c1C2=O)C[C@@](O)(C(=O)CO)C[C@@H]3O[C@H]1C[C@H](N)[C@@H](O)[C@H](C)O1 [Epirubicin] show?
5500

Origin of measurements: patent US20050004225A1
